Source listed as the NIST ThermoML archive (doi:10.1021/je900672g).

Give measured isobaric coefficient of expansion for each item. Keep answers brief.
Procedure Details: isobaric coefficient of expansion
Cond: 308.15 K; 55000 kPa; Liquid; DSC

CCC[N+](=O)[O-] [1-nitropropane] ... 0.000873 1/K
O=[N+]([O-])c1ccccc1 [nitrobenzene] ... 0.00071 1/K
CC[N+](=O)[O-] [nitroethane] ... 0.000942 1/K
C[N+](=O)[O-] [nitromethane] ... 0.001 1/K

The record that follows has no isobaric coefficient of expansion shown yet.
input: What measured isobaric coefficient of expansion goes with CCC#N [propanenitrile] ?
output: 0.000994 1/K

---

Procedure Details: isobaric coefficient of expansion
Cond: 318.15 K; 25000 kPa; Liquid; DSC
Observed Property: isobaric coefficient of expansion

Observe how each entry below is paired with its result.
CC[N+](=O)[O-] ... 0.00107 1/K
C[N+](=O)[O-] ... 0.00113 1/K
CCC[N+](=O)[O-] ... 0.000995 1/K
O=[N+]([O-])c1ccccc1 ... 0.000774 1/K
CCC#N ... 0.00116 1/K

The record that follows has no isobaric coefficient of expansion shown yet.
input: What measured isobaric coefficient of expansion goes with N#Cc1ccccc1 ?
output: 0.000798 1/K
